Reference source for all entries: ChEMBL document CHEMBL1671867

# System: Acinetobacter baumannii
# experimental details: Antibacterial activity against Acinetobacter baumannii ATCC 19606 by Etest method in presence of 0.5 ug/ml NAB739
# Format: functional
observed property: MIC (µg/mL)
Reply numerically in µg/mL, unit not repeated.

These solved cases illustrate the format of a correct answer.
{"columns": ["compound", "target", "unit symbol", "MIC"],
 "data": [
  ["CC(=O)O[C@H]1C[C@@]2(C)[C@@H](C[C@@H](O)[C@H]3[C@@]4(C)CC[C@@H](O)[C@@H](C)[C@@H]4CC[C@@]32C)/C1=C(\\CCC=C(C)C)C(=O)O [FUSIDIC ACID]", "Acinetobacter baumannii", "µg/mL", 4],
  ["CN[C@H](CC(C)C)C(=O)N[C@H]1C(=O)N[C@@H](CC(N)=O)C(=O)N[C@H]2C(=O)N[C@H]3C(=O)N[C@H](C(=O)N[C@H](C(=O)O)c4cc(O)cc(O)c4-c4cc3ccc4O)[C@H](O)c3ccc(c(Cl)c3)Oc3cc2cc(c3O[C@@H]2O[C@H](CO)[C@@H](O)[C@H](O)[C@H]2O[C@H]2C[C@](C)(N)[C@H](O)[C@H](C)O2)Oc2ccc(cc2Cl)[C@H]1O [VANCOMYCIN]", "Acinetobacter baumannii", "µg/mL", 3],
  ["C[C@@H](O)[C@H]1C(=O)N2C(C(=O)O)=C(S[C@@H]3CN[C@H](C(=O)N(C)C)C3)[C@H](C)[C@H]12 [MEROPENEM]", "Acinetobacter baumannii", "µg/mL", 0.25]
]}

Bench note: what MIC did CC[C@H]1OC(=O)[C@H](C)[C@@H](O[C@H]2C[C@@](C)(OC)[C@@H](O)[C@H](C)O2)[C@H](C)[C@@H](O[C@@H]2O[C@H](C)C[C@H](N(C)C)[C@H]2O)[C@](C)(OC)C[C@@H](C)C(=O)[C@H](C)[C@@H](O)[C@]1(C)O [CLARITHROMYCIN] show?
0.5

Bench note: what MIC did CO[C@H]1/C=C/O[C@@]2(C)Oc3c(C)c(O)c4c(O)c(c(/C=N/N5CCN(C)CC5)c(O)c4c3C2=O)NC(=O)/C(C)=C\C=C\[C@H](C)[C@H](O)[C@@H](C)[C@@H](O)[C@@H](C)[C@H](OC(C)=O)[C@@H]1C [RIFAMPIN] show?
0.047
